Ref: PubChem BioAssay

# experiment: compound effects on multiple myeloma cell viability – MM1S, calcein-AM fluorescence, 48 h, basal, profiling panel (AID 1165);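 further: viability of MM1S multiple myeloma cells under basal unstimulated conditions; test concentration not given here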
# condition-description: higher = more signal
z-score by entry:
assay-readout: z-score

C[C@]12C(=O)N(CCCCCO)[C@@H]3C(=O)N(c4ccc(Cl)cc4)CC=CC31O[C@@H]1/C=C\CCCOC(=O)C12 (stereo partly drawn)	0.355
Cc1ccc(-c2cccc(=O)o2)cc1	0.0881
COc1cc2c(cc1OC)CN(C(=O)[C@@H]1[C@H]3C(=O)O[C@H](c4ccccc4)[C@H](c4ccccc4)N3[C@H](c3ccc(OCCO)cc3)[C@@]13C(=O)Nc1ccc(C#CCCO)cc13)CC2	-0.369
CN(C)CCCN1C(=O)[C@@]2(Cc3ccccc31)c1ccccc1C(=O)N(Cc1ccccc1)[C@H]2c1ccc(CO)cc1	0.38
COCCCNC(=O)[C@@]1(Cc2ccccc2CN=[N+]=[N-])N=C(c2ccc(OCCCO)cc2)O[C@H]1c1ccccc1N=[N+]=[N-]	-1.34
CCOC(=O)C1=CCC(c2cccc(Cl)c2)O1 (stereo not drawn)	-0.488
C=C(CCCC)/C(=C/C[C@@H](OC(=O)c1ccncc1)c1ccccc1OCCO)c1cc(C(=O)OC)ccc1OC	-3.26
C=CCOC(=O)[C@H]1[C@@H]2C(=O)O[C@@H](c3ccccc3)[C@@H](c3ccccc3)N2[C@@H](c2ccc(OCCOC(=O)[C@H]3C[C@H]4C(=O)N[C@@H](CCCCN(C)C)C(=O)N4[C@H]3c3ccc(O)cc3)cc2)[C@]12C(=O)Nc1ccccc12	-1.54
COc1cc(NN2C(C(O)c3ccc(I)cc3)C=CC3C(=O)N(C)C(=O)C32)cc(OC)c1OC (stereo not drawn)	-0.07
O=C1C[C@@](C(=O)NCc2ccccc2)(c2ccc([N+](=O)[O-])cc2)[C@@H](c2ccc(CO)cc2I)N1C1CCCCC1	-1.6
CCOC(=O)C1=CC[C@@H](c2cccc(Br)c2)N(S(=O)(=O)c2ccc(C)cc2)[C@H]1c1ccc([N+](=O)[O-])cc1	-1.07
CN(C)C(=O)[C@@]1(CCS(=O)(=O)c2ccccc2)N=C(c2ccc(OCCCO)cc2)O[C@H]1c1ccccc1CN=[N+]=[N-]	-0.582
COc1cccc(C)c1NC(=O)O[C@H]1[C@H](OC(=O)Nc2ccccc2)[C@H](OC(=O)Nc2ccccc2)[C@@H](OC)O[C@@H]1CO	-2.53

====

# target-entity: Homeobox protein Hox-A13 (Mus musculus)
# experiment: disruptors of Hoxa13 oligonucleotide interaction – biochemical, fluorescence polarization, labeled oligonucleotide, primary screen (AID 1185)
# condition-description: Hoxa13:DNA binding, 15 min, higher = more signal, called active from +8 up or from −8 down
assay-readout: z-score

COC(=O)[C@@]1(Cc2ccc(F)cc2)[C@H]2c3cc(C(=O)N4CCCC4)n(Cc4ccccc4)c3C[C@H]2CN1C(=O)c1ccccc1	-3.98
COc1ccc([Si](C)(C)[C@@H]2[C@@H](CCO)O[C@]3(C(=O)N(Cc4ccccc4)c4ccc(N5CCCCC5=O)cc43)[C@H]2C)cc1	-4.29
O=C1CSC(c2cccc([N+](=O)[O-])c2)N1c1ccccc1 (centres undefined)	1.07
COC(=O)c1ccc(OC)c(/C=C\CC(CCc2ccccc2)OC(=O)c2ccncc2)c1 (centres undefined)	-2.52
COCCCNC(=O)[C@@]1(Cc2ccccc2)COC(c2ccc(OCCCO)cc2)=N1	-4.31
O=C(Nc1cc(Br)ccc1C(=O)NCc1cccc(O)c1)c1ccccc1	-0.429
[N-]=[N+]=NCc1ccccc1C[C@@]1(C(=O)NCCN2CCOCC2)N=C(c2ccc(OCCCO)cc2)O[C@@H]1c1ccccc1CN=[N+]=[N-]	-11.2
COCCOC(=O)N1C(=O)[C@@]2(c3cc(C#CCNC(N)=O)ccc31)[C@H](c1ccc(OCCO)cc1)N1[C@H](c3ccccc3)[C@H](c3ccccc3)OC(=O)[C@H]1[C@@H]2C(=O)N1CCN(c2ncccn2)CC1	0.513
CC1C=C(CCCO)C=C(C(=O)OCCS(C)(=O)=O)C(C(=O)OCCS(C)(=O)=O)=CN1Cc1cccc(OC(F)(F)F)c1 (centres undefined)	-7.2

====

z-score by entry:
# experiment: FRG1 expression reporter modulators in myotubes – cell-based, C2C12 myotubes, firefly/Renilla luciferase, luminescence, FRG1 inhibition for FSHD, primary screen (AID 1084)
# condition-description: FRG1 promoter luciferase, higher = more signal, called active from +8 up or from −8 down
Active and inactive are the calls of the source.
assay-readout: z-score

CCOC(=O)C[C@H]1[C@H](OC(=O)c2cc3ccccc3oc2=O)[C@@H](NC(=O)c2ccc3ccccc3n2)c2cc(OCCCO)ccc2N1C(=O)c1ccc2ccccc2n1	-0.21 (inactive)
CC(C)c1ccc(NN2C(C(O)c3cccs3)C=CC3C(=O)N(c4ccccc4)C(=O)C32)cc1 (stereo unspecified)	-1.87 (inactive)
COC(=O)[C@H]1N=C(c2ccc(OCCCO)cc2)O[C@H]1c1ccccc1CN=[N+]=[N-]	4.14 (inactive)
[N-]=[N+]=NCc1ccccc1C[C@]1(C(=O)NCCN2CCOCC2)N=C(c2ccc(OCCCO)cc2)O[C@H]1c1ccccc1	-0.849 (inactive)
NC(=O)NCC#Cc1ccc2c(c1)[C@]1(C(=O)N2)[C@H](c2ccc(OCCO)cc2)N2[C@H](c3ccccc3)[C@H](c3ccccc3)OC(=O)[C@H]2[C@@H]1C(=O)N1CCCCCCC1	-0.154 (inactive)
CC1(C)[C@@H]2CC(C(O)C3C=CC4C(=O)N(c5ccccc5)C(=O)C4N3Nc3ccccc3F)=C[C@@H]1C2 (stereo partly specified)	-3.65 (inactive)

====

# experiment: compound effects on differentiated 3T3-L1 adipocyte viability – cell-based, 3T3-L1 adipocytes, calcein-AM fluorescence, 48 h, basal, profiling panel (AID 1163); further: test concentration not given here
# condition-description: 3T3-L1 adipocytes viability, higher = more signal
assay-readout: z-score

COCCCNC(=O)[C@@]1(Cc2ccccc2CN=[N+]=[N-])N=C(c2ccc(OCCCO)cc2)O[C@H]1c1ccccc1N=[N+]=[N-]	-0.0406
COc1cc(NN2C(C(O)c3ccc(I)cc3)C=CC3C(=O)N(C)C(=O)C32)cc(OC)c1OC (stereo not given)	0.459
O=C1C2C=CC(C(O)c3ccccn3)N(Nc3ccccc3)C2C(=O)N1c1ccccc1 (stereo not given)	-1.46
C[C@H]1NC(=O)C([C@@H](C)OCc2ccccc2)NC(=O)[C@@]23C(=O)N[C@@H](Cc4ccccc4)C2[C@H](C)[C@@]2(C)O[C@H]2C3/C=C/CC/C=C/CNC1=O (stereo not given in full)	0.221
Cc1ccc(S[C@]2(C(=O)NCC(C)C)CC(=O)N(C3CCCCC3)[C@@H]2c2ccc(CO)cc2I)cc1	-0.395

====

# experiment: blockers of DNA damage checkpoint Chk1 activation – imaging, HeLa, hydroxyurea, phospho-Chk1 antibody, percent positive cells, primary screen (AID 1186)
# condition-description: hydroxyurea-induced phospho-Chk1 immunofluorescence imaging, higher = more signal
assay-readout: z-score

Cc1cc(C)c(C(O)C2C=CC3C(=O)N(c4ccccc4)C(=O)C3N2Nc2ccccc2)c(C)c1 (stereo not given)	0.826
COC(=O)[C@@]1(Cc2ccc(OC)cc2)[C@H]2c3cc(C(=O)N4CCCC4)n(CCc4ccc(O)c(OC)c4)c3C[C@H]2CN1C(=O)c1ccccc1	0.219
COC(=O)[C@@]1(Cc2ccc(F)cc2)[C@@H]2[C@@H](CC(=O)[C@H]2CC(=O)C(=O)N2CCCC2)CN1C(=O)c1ccccc1	0.853
COCCOC(=O)N1C(=O)[C@@]2(c3cc(C#CCCO)ccc31)[C@H](c1ccc(OCCO)cc1)N1[C@H](c3ccccc3)[C@H](c3ccccc3)OC(=O)[C@H]1[C@@H]2C(=O)N1CCc2cc(OC)c(OC)cc2C1	-0.209
O=C1NC(=O)C2C1C=CC(C(O)c1ccc(-c3ccccc3)s1)N2Nc1ccccn1 (stereo not given)	0.773
COC(=O)c1ccc(OC)c(/C=C\CC(CCc2ccccc2)OC(=O)c2ccncc2)c1 (stereo not given)	0.0946
COc1ccc([Si](C)(C)[C@@H]2[C@@H](CCO)O[C@]3(C(=O)N(Cc4ccccc4)c4ccc(N5C(=O)COc6ccccc65)cc43)[C@H]2C)cc1	-1.26
CC1C=C(CCCO)C=C(C(=O)OCCS(C)(=O)=O)C(C(=O)OCCS(C)(=O)=O)=CN1Cc1cccc(OC(F)(F)F)c1 (stereo not given)	-0.0917
COCC(=C=CC[C@@H](O)c1ccccc1OCCO)C[C@@H](O)c1ccccn1	0.413
CC(C)NC(=O)[C@@]1(Cc2ccccc2I)c2ccccc2C(=O)N(Cc2ccccc2C(F)(F)F)[C@H]1c1ccc(CO)cc1	-0.195
C=CCC(OC(C)=O)[C@@H]1[C@@H](N(Cc2cccc3ccccc23)C(=O)Cc2ccc(F)cc2)c2cc(OCCCO)ccc2N1C(=O)Cc1ccc(OC)cc1 (stereo not given in full)	-0.0456
CCOC(=O)C[C@H]1[C@H](OC(=O)c2cc3ccccc3oc2=O)[C@@H](NC(=O)c2ccc3ccccc3n2)c2cc(OCCCO)ccc2N1C(=O)c1ccc2ccccc2n1	-0.443
COc1ccc([Si](C)(C)[C@H]2[C@H](CC(=O)N3CCC[C@H]3CO)O[C@@]3(C(=O)N(Cc4ccc(N5C(=O)c6cccc7cccc5c67)cc4)c4ccccc43)[C@@H]2C)cc1	0.171
C#CCOC(=O)N[C@H](C=CCCCC)c1ccccc1	0.163
CCCC[C@@H](O)C1=C(COc2ccccc2)Cn2c(=O)n(-c3ccccc3)c(=O)n2[C@H]1CO	-0.532
